- target: T1, soluble human FcRn (shFcRn) (human, UniProt P55899 24-297; P61769 21-119)
- T1 construct: Biotinylated for the ELISA, amine-coupled to a CM5 chip for SPR; also called biotinylated shFcRn
- T1 sequence (P55899 24-297 limits assumed, chain 1 of 2): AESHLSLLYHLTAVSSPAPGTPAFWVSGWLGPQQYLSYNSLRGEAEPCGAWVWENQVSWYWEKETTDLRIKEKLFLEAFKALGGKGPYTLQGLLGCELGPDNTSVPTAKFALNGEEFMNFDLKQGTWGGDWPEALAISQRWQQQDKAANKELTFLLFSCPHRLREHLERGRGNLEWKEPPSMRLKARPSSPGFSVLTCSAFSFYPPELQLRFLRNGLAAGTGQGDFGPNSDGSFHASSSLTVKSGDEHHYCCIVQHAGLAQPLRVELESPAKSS
- T1 sequence (P61769 21-119 limits assumed, chain 2 of 2): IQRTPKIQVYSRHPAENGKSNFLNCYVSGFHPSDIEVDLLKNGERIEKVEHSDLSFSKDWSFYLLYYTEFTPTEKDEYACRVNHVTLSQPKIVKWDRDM
- protocol.details: SPR pH 7.4
Bridge positions count the residues as written; N and C are the ends. Square brackets hold non-standard residues; d marks the D form. Ends that are not written are not given here. Pen = CC(C)(S)[C@H](N)C(=O)O
experimental.readout: Kd (µM)
Give the value in µM but do not write µM after it.

The cases that follow already have their Kd on record.
QRF[Pen]TGHFG[dP]LYPCNGP-NH2 (disulfide 4-14; N-terminus assumed; SMILES CC(C)C[C@@H]1NC(=O)[C@H]2CCCN2C(=O)CNC(=O)[C@H](Cc2ccccc2)NC(=O)[C@H](Cc2c[nH]cn2)NC(=O)CNC(=O)[C@H]([C@@H](C)O)NC(=O)[C@@H](NC(=O)[C@H](Cc2ccccc2)NC(=O)[C@H](CCCNC(=N)N)NC(=O)[C@@H](N)CCC(N)=O)C(C)(C)SSC[C@@H](C(=O)N[C@@H](CC(N)=O)C(=O)NCC(=O)N2CCC[C@H]2C(N)=O)NC(=O)[C@@H]2CCCN2C(=O)[C@H](Cc2ccc(O)cc2)NC1=O) [Peptide No. 40] ... 1.1
QRF[Pen]TGHFG[dF]LYPCNGP-NH2 (disulfide 4-14; N-terminus assumed; SMILES CC(C)C[C@@H]1NC(=O)[C@@H](Cc2ccccc2)NC(=O)CNC(=O)[C@H](Cc2ccccc2)NC(=O)[C@H](Cc2c[nH]cn2)NC(=O)CNC(=O)[C@H]([C@@H](C)O)NC(=O)[C@@H](NC(=O)[C@H](Cc2ccccc2)NC(=O)[C@H](CCCNC(=N)N)NC(=O)[C@@H](N)CCC(N)=O)C(C)(C)SSC[C@@H](C(=O)N[C@@H](CC(N)=O)C(=O)NCC(=O)N2CCC[C@H]2C(N)=O)NC(=O)[C@@H]2CCCN2C(=O)[C@H](Cc2ccc(O)cc2)NC1=O) [Peptide No. 44] ... 100
QRF[Pen]TGHFG[dH]LYPCNGP-NH2 (disulfide 4-14; N-terminus assumed; SMILES CC(C)C[C@@H]1NC(=O)[C@@H](Cc2c[nH]cn2)NC(=O)CNC(=O)[C@H](Cc2ccccc2)NC(=O)[C@H](Cc2c[nH]cn2)NC(=O)CNC(=O)[C@H]([C@@H](C)O)NC(=O)[C@@H](NC(=O)[C@H](Cc2ccccc2)NC(=O)[C@H](CCCNC(=N)N)NC(=O)[C@@H](N)CCC(N)=O)C(C)(C)SSC[C@@H](C(=O)N[C@@H](CC(N)=O)C(=O)NCC(=O)N2CCC[C@H]2C(N)=O)NC(=O)[C@@H]2CCCN2C(=O)[C@H](Cc2ccc(O)cc2)NC1=O) [Peptide No. 42] ... 20
QRFCTGHFGXLYPCNGP (Pen 4; Aib (aminoisobutyric acid) 10; disulfide 4-14; C-terminal amide) [Peptide No. 46] ... 5.3

## Task Quick one: Kd for QRF[Pen]TGHFG[dI]LYPCNGP-NH2 (disulfide 4-14; N-terminus assumed; SMILES CC[C@@H](C)[C@H]1NC(=O)CNC(=O)[C@H](Cc2ccccc2)NC(=O)[C@H](Cc2c[nH]cn2)NC(=O)CNC(=O)[C@H]([C@@H](C)O)NC(=O)[C@@H](NC(=O)[C@H](Cc2ccccc2)NC(=O)[C@H](CCCNC(=N)N)NC(=O)[C@@H](N)CCC(N)=O)C(C)(C)SSC[C@@H](C(=O)N[C@@H](CC(N)=O)C(=O)NCC(=O)N2CCC[C@H]2C(N)=O)NC(=O)[C@@H]2CCCN2C(=O)[C@H](Cc2ccc(O)cc2)NC(=O)[C@H](CC(C)C)NC1=O) [Peptide No. 43] ?
## Result 41

Data provenance is patent US20110059889A1.
